Give solubility kinetic for every item shown.
conditionSet: buffer; pH 7.4; 200.0 µM

O=C(NNC(=O)c1cccnc1Cl)c1ccc(F)cc1    > 44.1 µg/mL
COc1ccccc1CNC(=O)CN(C)CC(=O)Nc1ccccc1Br    > 63 µg/mL
CC(OC(=O)CN1C(=O)c2ccccc2C1=O)C(=O)NC1CCCCC1 (configuration not stated)    > 53.8 µg/mL
O=C(CSc1ccccn1)Nc1ccc2c(c1)OCO2    > 43.2 µg/mL
CN(C1=NC(=O)CS1)c1ccc(O)cc1    > 33.3 µg/mL

Look at each compound and report its solubility kinetic.
1. CCN(CC(=O)NC1CCS(=O)(=O)C1)S(=O)(=O)c1ccccc1Cl (configuration not stated)
2. O=C(O)c1ccc(NC(=O)c2ccco2)c(NC(=O)c2ccco2)c1

1: > 59.2 µg/mL; 2: > 51 µg/mL

* * *

conditionSet: buffer; pH 7.4; 200.0 µM
Give measured solubility kinetic for each item. Keep answers brief.
Numbers only, in µg/mL.

Cc1ccc(NC2(C#N)C(=O)Nc3ccccc32)cc1C (stereo unspecified)    23.3
CCOC(=O)c1cc(-c2cccc([N+](=O)[O-])c2)on1    2.1

Value sought for every listed molecule: solubility kinetic.
1. O=C(NCC1CCCCC1)c1cc([N+](=O)[O-])ccc1Cl
2. CC(=O)Cc1nsc(Nc2cccc(C)c2)n1
3. CN1CCN(c2nc(-c3ccc(Cl)c(Cl)c3)nc3ccccc23)CC1
4. CCOC(=O)c1sc(=NC(=O)c2c(F)cccc2F)n(C)c1C
5. Nc1ccc(Oc2ccc3c(c2)OCO3)cc1

[8, 30.5, 0.4, 0.9, 27.3]

Below are 4 molecules. Give each one its solubility kinetic.
1. CC(C)Cn1c(N)cc(=O)n(C)c1=O
2. C=C(C)C1CC=C(CN2CCN(Cc3ccccc3)CC2)CC1 (stereo unspecified)
3. Cc1cc(C(=O)NC2CCC(C)CC2)c(C)o1 (stereo unspecified)
4. CN(C(=O)Nc1ccccc1)C1CCCCC1

[22.2, 17.8, 12.6, 8.6]

Look at each molecule and report its solubility kinetic.
1. COc1cccc(C2(C)NC(=O)N(CC(=O)Nc3ccc(N4CCOCC4)cc3)C2=O)c1 (stereo unspecified)
2. CC(C)(C)c1cc(/C=C2\NC(=O)NC2=O)cc(C(C)(C)C)c1O
3. N#Cc1c(F)cccc1N1CCN(Cc2ccc3c(c2)OCO3)CC1
4. COCCNC(=O)CSc1ncnc2sc(-c3ccccc3)cc12
5. COc1ccccc1N1CCN(CCc2ccccc2)CC1
6. CN(C)c1nc(N(C)C)nc(N(C#N)CCCl)n1

57.7
6.6
14.6
1
37.5
19.2

* * *

conditionSet: buffer; pH 7.4; 200.0 µM
measuredParameter: solubility kinetic

Cc1ccc(S(=O)(=O)N2CCN(c3ccc([N+](=O)[O-])cn3)CC2)cc1    < 0.2 µg/mL
O=C(O)/C=C/c1ccc(S(=O)(=O)Nc2ccc3[nH]c(=O)[nH]c3c2)cc1    > 53.9 µg/mL
CCOc1ccc(S(=O)(=O)N2CCN(C(=O)c3ccncc3)CC2)cc1    > 56.3 µg/mL
COc1cc2ccccc2cc1C(=O)NC1CCCC1    > 40.4 µg/mL
O=C(CCNS(=O)(=O)c1ccccc1)N1CCOCC1    > 44.8 µg/mL

# evaluate next
So what's the measured solubility kinetic for this one? CCc1ccc(NC(=O)C(C)OC(=O)Cc2cc(OC)c(OC)c(OC)c2)cc1 (stereo unspecified)
> 60.2 µg/mL

* * *

conditionSet: buffer; pH 7.4; 200.0 µM
Would you kindly list log10 solubility kinetic for each of these compounds?
// stored as log10 of solubility kinetic expressed in µg/mL

Below: 2 compounds and their reported log10 solubility kinetic.
O=C(NCc1ccc(F)cc1)c1cnc(Cl)c(Cl)c1    0.84
CN(C)c1ccc(-c2nc3ccccc3c(=O)[nH]2)cc1    0.28

// for each compound below, give its log10 solubility kinetic
1. COc1ccc(NC(=O)C2CCCC2)cc1
2. COc1ccc(CCNC(=O)COC(=O)/C=C/c2ccc3c(c2)OCO3)cc1
3. Cc1cccc(N2CCN(Cc3nc(CC4CC4)no3)CC2)n1

1.48
0.34
1.61

* * *

conditionSet: buffer; pH 7.4; 200.0 µM
measuredParameter: solubility kinetic

Cc1ccc(C)c(NCc2ccccc2CO)c1    > 36.2 µg/mL
CC(=O)c1ccc(NC(=O)C2CCCO2)cc1 (stereo unspecified)    > 35 µg/mL
COC(=O)c1cc(NC(=O)c2c(C)noc2C)ccc1N1CCOCC1    > 53.9 µg/mL
N#Cc1c(-c2cccc([N+](=O)[O-])c2)nc2n(c1=O)CCS2    > 45 µg/mL
CCN(C(=O)CSc1nccc(=O)[nH]1)C1CCCCC1    > 44.3 µg/mL

Which solubility kinetic value belongs to "O=C(OCCN=C1NS(=O)(=O)c2ccccc21)c1cccs1" ?
2.5 µg/mL

* * *

conditionSet: buffer; pH 7.4; 200.0 µM
I'd be grateful if you could share measured solubility kinetic for these entries.

Sample records with solubility kinetic:
Cc1nnc(SCC(=O)c2c(N)n(C3CC3)c(=O)[nH]c2=O)n1C    > 50.5 µg/mL
COc1ccccc1CCNC(=O)c1c(C)nn(CC(C)C)c1Cl    > 52.5 µg/mL

Could you tell me solubility kinetic for each of these molecules? They are listed below.
1. CC1=C(C)CC(C(=O)NCCc2ccc(F)cc2)C(C(=O)O)C1 (configuration not stated)
2. O=C(O)c1ccc(NC(=S)NCc2ccccc2)cc1
3. Cc1cc2c(c(SCC(N)=O)n1)C(=O)OC2
4. O=C(c1cccc(Br)c1)N1CCN(c2ccccn2)CC1
5. O=C1CC(=O)N(Cc2ccccc2)C(=S)N1

["> 47.9 µg/mL", "> 43 µg/mL", "> 35.7 µg/mL", "> 51.9 µg/mL", "> 35.1 µg/mL"]

* * *

conditionSet: buffer; pH 7.4; 200.0 µM
measuredParameter: solubility kinetic

CCN1CCN(C(=O)N(c2ccccc2)c2ccccc2)CC1    > 46.4 µg/mL

Fill in solubility kinetic for each of the 2 compounds listed.
1. CCN(CC(=O)NCc1ccc(F)cc1)C(=O)COc1ccccc1[N+](=O)[O-]
2. O=C(COc1ccc(Cl)cc1)Nc1nnc(C2=COCCO2)o1

> 58.4 µg/mL
> 50.7 µg/mL

* * *

conditionSet: buffer; pH 7.4; 200.0 µM
measuredParameter: solubility kinetic

Below, each entry is followed by its recorded solubility kinetic result.
Cc1c(C)c2ccc(OCC(=O)N3CCOCC3)c(C)c2oc1=O    > 49.7 µg/mL
O=C(NCCN1CCCCC1)c1ccc(F)cc1Cl    > 42.7 µg/mL
Cc1ccc(C)c(S(=O)(=O)N2CCC3(CC2)OCCO3)c1    > 46.7 µg/mL
COc1ccc(OC(=O)N2CCOCC2)cc1    > 35.6 µg/mL
Cc1nnc(NC(=O)CN2C(=O)NC3(CCCC3)C2=O)s1    > 46.4 µg/mL

Give solubility kinetic for each listed item.
1. Cc1nc2ccccc2n1CC(=O)OCC(=O)N1CCC(C)CC1
2. Cc1cc(C)nc(NC(=O)c2ccc(C)o2)n1
3. COc1cccc(C(=O)Oc2ccc(N3C(=O)CCC3=O)c(C)c2)c1
4. COCCOC(=O)C1=C(C)NC(=O)NC1c1cccc(F)c1 (stereo not given)

> 49.4 µg/mL
> 34.7 µg/mL
> 50.9 µg/mL
> 46.2 µg/mL

* * *

conditionSet: buffer; pH 7.4; 200.0 µM
What solubility kinetic was measured for each of the following?

Record excerpt, results attached:
CCCN1C2CCCC1CC(NC(=O)c1cccc([N+](=O)[O-])c1)C2 (configuration not stated)    > 49.7 µg/mL
O=C(O)Cc1c(C(=O)O)[nH]c2ccc(C(=O)O)cc12    > 39.5 µg/mL
COc1cccc(NC(=O)CNC(=O)c2ccc(C)o2)c1    > 43.2 µg/mL
CCN(CC)CCNS(=O)(=O)c1ccc2c3c(cccc13)C(=O)N2    > 52.1 µg/mL

Quick one: give me solubility kinetic for each item below, same order please.
1. CC(=O)c1cccc(NC(=O)CC2CCCC2)c1
2. C(=N\N1CCN(c2ccccn2)CC1)/c1ccccn1
3. CCOC(=O)Cn1ccc(NC(=O)COc2ccc(F)cc2)n1

1: > 36.8 µg/mL; 2: > 40.1 µg/mL; 3: > 48.2 µg/mL

* * *

conditionSet: buffer; pH 7.4; 200.0 µM
For each record, write down the corresponding solubility kinetic.

# example entries with known answers
CC(C)(C)c1ccc(NC(=O)NC2CCCc3ccccc32)cc1 (stereo unspecified)    < 0.3 µg/mL
COc1cc(C(=O)NCCNC(=O)C2CCCNC2=O)cc(OC)c1OC (stereo unspecified)    > 56.9 µg/mL
Nc1ccc(C(=O)C(=O)c2ccccc2)cc1    > 33.8 µg/mL
COc1ccc(N2CCN(C(=S)NCc3ccc(C)cc3)CC2)cc1    < 0.3 µg/mL
NS(=O)(=O)c1ccc(CCNC(=O)c2ccco2)cc1    > 44.1 µg/mL

Here's the next entry for you.
Which solubility kinetic value belongs to "COc1ccc(CN(C)C(=O)CNC(=O)c2ccc(C)cc2)cc1" ?
> 49 µg/mL
